Task for the reader: assign each of the following molecules its reported inhibition.
molecular target: CDK9/cyclin T1 (Homo sapiens) (UniProt O60563+P50750); assay: Inhibition of CDK9/cyclin T1 (unknown origin) at 1 uM incubated for 30 to 60 mins presence of dithiothreitol by Cheng-Prusoff equation analysis relative to control; assay type: protein-complex assay; conditions: time 30-60 min

Cn1cc(-c2nc(Nc3ccc(C(F)(F)F)c(Cl)c3)ncc2F)cn1: 39%
Cn1cc(-c2nc(Nc3ccc(S(C)(=O)=O)cc3)ncc2F)cn1: 33%
Cn1cc(-c2cc(N)nc(Nc3cccc(S(N)(=O)=O)c3)n2)cn1: 57%

Proceed to the following item.
CDK9/cyclin T1 (Homo sapiens) (UniProt O60563+P50750) / inhibition / Cn1cc(-c2nc(Nc3cccc([N+](=O)[O-])c3)ncc2Cl)cn1 : value?
73%
